ASSAY TARGET: S. aureus sortase A (Staphylococcus aureus)
Construct: purchased AnaSpec AS-72229
Sequence (Q2FV99 whole entry): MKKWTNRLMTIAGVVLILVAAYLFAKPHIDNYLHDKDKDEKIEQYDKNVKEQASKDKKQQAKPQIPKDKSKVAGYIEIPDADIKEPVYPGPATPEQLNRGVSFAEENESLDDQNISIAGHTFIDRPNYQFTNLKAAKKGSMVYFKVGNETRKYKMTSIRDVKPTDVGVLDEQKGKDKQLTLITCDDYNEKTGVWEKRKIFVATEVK
PROTOCOL: SrtA enzyme inhibition FRET assay, 5-FAM/QXL 520 substrate
Format: biochemical
CONDITION CONTEXT: 5-FAM/QXL substrate; 10 min; read-out: Sortase A IC50
PROPERTY LABEL: IC50 (nM)
Give the number; nM is assumed, so skip it.

Data request: IC50 lookup needed for O=C(O)c1cc[c]([Hg][OH])cc1 [p-HMB, p-hydroxymercuribenzoic acid, reference compound] , thanks.
Data returned: 180

* * *

Tested on: A549 cells
PROTOCOL: Mammalian cell cytotoxicity assay (PrestoBlue)
Format: cell-based, human
CONDITION CONTEXT: 72 h, read-out: Mammalian cell lines IC50
pIC50: −log10 of the molar value.
For each entry below, report its pIC50 value.

Data request: Under A549 cells: pIC50 value of Cc1cc(O)c2c(c1)C(=O)c1c(c(O)cc(O)c1-c1c(O)cc(O)c3c1C(=O)c1cc(C)cc(O)c1C3=O)C2=O [Compound N1287, Skyrin] ?
Data returned: 4.05 to 4.22

Data request: Another compound to check: CC(C)CCCc1c(O)ccc(C(=O)c2cc(Cl)c(Cl)[nH]2)c1O [Compound N2576]
Data returned: 4.05 to 4.22
